I'd appreciate it if you could supply MBC values for the items below.
test system: Escherichia coli; assay: Antimicrobial activity against Escherichia coli CIP 53126 after 18 to 24 hrs by broth microdilution method; assay type: functional
State the result as a value with its unit after it.

Query string: Missing value: MBC, Escherichia coli, entry "CCCC(=O)N1CCN(c2cc3c(cc2F)c(=O)c(C(=O)O)cn3C2CC2)CC1" . Fill in?
Result string: 7.8 µM

Query string: Missing value: MBC, Escherichia coli, entry "C[C@H]1COc2c(N3CCN(C)CC3)c(F)cc3c(=O)c(C(=O)NCCCCCCCCNC(=O)c4cn5c6c(c(N7CCN(C)CC7)c(F)cc6c4=O)OC[C@@H]5C)cn1c23" . Fill in?
Result string: 3.9 µM

Query string: Missing value: MBC, Escherichia coli, entry "O=C(CCCCCCCCCCC(=O)OCN1CCN(c2cc3c(cc2F)c(=O)c(C(=O)O)cn3C2CC2)CC1)OCN1CCN(c2cc3c(cc2F)c(=O)c(C(=O)O)cn3C2CC2)CC1" . Fill in?
Result string: 62.5 µM

* * *

test system: Escherichia coli; assay: Antimicrobial activity against Escherichia coli CIP 53126 after 18 to 24 hrs by broth microdilution method; format: functional
outcome.measure: MBC (µM)
Only the number, expressed in µM, is required.

Query string: Can you share its MBC? I mean this molecule: "CC(=O)N1CCN(c2cc3c(cc2F)c(=O)c(C(=O)O)cn3C2CC2)CC1"
Result string: 1.9

Query string: Can you share its MBC? I mean this molecule: "CC(C)(C)OC(=O)N1CCN(c2cc3c(cc2F)c(=O)c(C(=O)O)cn3C2CC2)CC1"
Result string: 1.9

Query string: Can you share its MBC? I mean this molecule: "O=C(O)c1cn(C2CC2)c2cc(N3CCN(C(=O)CCCCCCCCCCCCCC(=O)N4CCN(c5cc6c(cc5F)c(=O)c(C(=O)O)cn6C5CC5)CC4)CC3)c(F)cc2c1=O"
Result string: 500

Query string: Can you share its MBC? I mean this molecule: "O=C(O)c1cn(C2CC2)c2cc(N3CCN(C(=O)CCCCCCCCCCCCCCC(=O)N4CCN(c5cc6c(cc5F)c(=O)c(C(=O)O)cn6C5CC5)CC4)CC3)c(F)cc2c1=O"
Result string: 500

Query string: Can you share its MBC? I mean this molecule: "CCCCCCNC(=O)c1cn2c3c(c(N4CCN(C)CC4)c(F)cc3c1=O)OC[C@@H]2C"
Result string: 500

Query string: Can you share its MBC? I mean this molecule: "CCCCCCCCCCCCCCCNC(=O)c1cn2c3c(c(N4CCN(C)CC4)c(F)cc3c1=O)OC[C@@H]2C"
Result string: 500

Query string: Can you share its MBC? I mean this molecule: "O=C(CCCCCCCCCCCCC(=O)OCN1CCN(c2cc3c(cc2F)c(=O)c(C(=O)O)cn3C2CC2)CC1)OCN1CCN(c2cc3c(cc2F)c(=O)c(C(=O)O)cn3C2CC2)CC1"
Result string: 62.5

Query string: Can you share its MBC? I mean this molecule: "CCCCCCC(=O)N1CCN(c2cc3c(cc2F)c(=O)c(C(=O)O)cn3C2CC2)CC1"
Result string: 31.2

* * *

test system: Staphylococcus aureus; assay: Antimicrobial activity against Staphylococcus aureus CIP 4.83 after 18 to 24 hrs by broth microdilution method; type: functional
outcome.measure: MBC (µM)
Only the number, expressed in µM, is required.

Query string: Missing value: MBC, Staphylococcus aureus, entry "C[C@H]1COc2c(N3CCN(C)CC3)c(F)cc3c(=O)c(C(=O)NCCCCCCCCNC(=O)c4cn5c6c(c(N7CCN(C)CC7)c(F)cc6c4=O)OC[C@@H]5C)cn1c23" . Fill in?
Result string: 15.6

Query string: Missing value: MBC, Staphylococcus aureus, entry "C[C@H]1COc2c(N3CCN(C)CC3)c(F)cc3c(=O)c(C(=O)NCCCCCCCCCNC(=O)c4cn5c6c(c(N7CCN(C)CC7)c(F)cc6c4=O)OC[C@@H]5C)cn1c23" . Fill in?
Result string: 31.2

Query string: Missing value: MBC, Staphylococcus aureus, entry "CCCCCCCCCCCCNC(=O)c1cn2c3c(c(N4CCN(C)CC4)c(F)cc3c1=O)OC[C@@H]2C" . Fill in?
Result string: 15.6

* * *

I'd appreciate it if you could supply pIC50 values for the items below.
test system: MCF7; test: Antiproliferative activity against human MCF7 cells after 120 hrs by MTT asasy; assay type: functional, cell-based; settings: MCF7, 120 h
// field semantics: pIC50 = negative decimal log of concentration (mol/L)

Query string: Can you share its pIC50? I mean this compound: "O=C(O)c1cn(C2CC2)c2cc(N3CCN(C(=O)CCCCCCCCCCCCC(=O)N4CCN(c5cc6c(cc5F)c(=O)c(C(=O)O)cn6C5CC5)CC4)CC3)c(F)cc2c1=O"
Result string: 5.30

Query string: Can you share its pIC50? I mean this compound: C[C@H]1COc2c(N3CCN(C)CC3)c(F)cc3c(=O)c(C(=O)O)cn1c23 [LEVOFLOXACIN]
Result string: 4.17

Query string: Can you share its pIC50? I mean this compound: "C[C@H]1COc2c(N3CCN(C)CC3)c(F)cc3c(=O)c(C(=O)NCCCCCCCCCNC(=O)c4cn5c6c(c(N7CCN(C)CC7)c(F)cc6c4=O)OC[C@@H]5C)cn1c23"
Result string: 6.70

Query string: Can you share its pIC50? I mean this compound: "O=C(CCCCCCCCCCCCC(=O)OCN1CCN(c2cc3c(cc2F)c(=O)c(C(=O)O)cn3C2CC2)CC1)OCN1CCN(c2cc3c(cc2F)c(=O)c(C(=O)O)cn3C2CC2)CC1"
Result string: 5.05

* * *

system: Enterococcus hirae; test: Antimicrobial activity against Enterococcus hirae CIP 5855 after 18 to 24 hrs by broth microdilution method; type: functional
I'd appreciate it if you could supply MBC values for the items below.
Only the number, expressed in µM, is required.

Query string: Can you share its MBC? I mean this compound: "CCCCCCCCCC(=O)N1CCN(c2cc3c(cc2F)c(=O)c(C(=O)O)cn3C2CC2)CC1"
Result string: 15.6

Query string: Can you share its MBC? I mean this compound: "CCCCCCCCCCCCNC(=O)c1cn2c3c(c(N4CCN(C)CC4)c(F)cc3c1=O)OC[C@@H]2C"
Result string: 3.9

Query string: Can you share its MBC? I mean this compound: "CCCCCCCCCCCCCCCC(=O)OCC(=O)N1CCN(c2cc3c(cc2F)c(=O)c(C(=O)O)cn3C2CC2)CC1"
Result string: 500

Query string: Can you share its MBC? I mean this compound: "CCOC(=O)N1CCN(c2cc3c(cc2F)c(=O)c(C(=O)O)cn3C2CC2)CC1"
Result string: 3.9

Query string: Can you share its MBC? I mean this compound: "CC(=O)OCC(=O)N1CCN(c2cc3c(cc2F)c(=O)c(C(=O)O)cn3C2CC2)CC1"
Result string: 15.6

Query string: Can you share its MBC? I mean this compound: "CCCCCCCCCC(=O)OCOC(=O)c1cn2c3c(c(N4CCN(C)CC4)c(F)cc3c1=O)OC[C@@H]2C"
Result string: 1.9

Query string: Can you share its MBC? I mean this compound: "O=C(CCCCCCCCCCC(=O)OCN1CCN(c2cc3c(cc2F)c(=O)c(C(=O)O)cn3C2CC2)CC1)OCN1CCN(c2cc3c(cc2F)c(=O)c(C(=O)O)cn3C2CC2)CC1"
Result string: 31.2

* * *

system: Escherichia coli; experiment: Antimicrobial activity against Escherichia coli CIP 53126 after 18 to 24 hrs by broth microdilution method; type: functional
outcome.measure: MBC (µM)
Only the number, expressed in µM, is required.

Query string: Can you share its MBC? I mean this compound: "CCCCCCCCCOC(=O)N1CCN(c2cc3c(cc2F)c(=O)c(C(=O)O)cn3C2CC2)CC1"
Result string: 500

Query string: Can you share its MBC? I mean this compound: "O=C(O)c1cn(C2CC2)c2cc(N3CCN(C(=O)CCCCCCCCCCC(=O)N4CCN(c5cc6c(cc5F)c(=O)c(C(=O)O)cn6C5CC5)CC4)CC3)c(F)cc2c1=O"
Result string: 62.5

Query string: Can you share its MBC? I mean this compound: "C[C@H]1COc2c(N3CCN(C)CC3)c(F)cc3c(=O)c(C(=O)NCCCCCCCCCNC(=O)c4cn5c6c(c(N7CCN(C)CC7)c(F)cc6c4=O)OC[C@@H]5C)cn1c23"
Result string: 3.9

Query string: Can you share its MBC? I mean this compound: "O=C(O)c1cn(C2CC2)c2cc(N3CCN(C(=O)CCCCCCCCCCCCC(=O)N4CCN(c5cc6c(cc5F)c(=O)c(C(=O)O)cn6C5CC5)CC4)CC3)c(F)cc2c1=O"
Result string: 500

Query string: Can you share its MBC? I mean this compound: "CCCCCCCCCCCCNC(=O)c1cn2c3c(c(N4CCN(C)CC4)c(F)cc3c1=O)OC[C@@H]2C"
Result string: 500

Query string: Can you share its MBC? I mean this compound: "CCC(=O)N1CCN(c2cc3c(cc2F)c(=O)c(C(=O)O)cn3C2CC2)CC1"
Result string: 500

Query string: Can you share its MBC? I mean this compound: "CCCCCC(=O)OCC(=O)N1CCN(c2cc3c(cc2F)c(=O)c(C(=O)O)cn3C2CC2)CC1"
Result string: 31.2

Query string: Can you share its MBC? I mean this compound: "CCCCCCCCNC(=O)c1cn2c3c(c(N4CCN(C)CC4)c(F)cc3c1=O)OC[C@@H]2C"
Result string: 500

Query string: Can you share its MBC? I mean this compound: "CCCCCCCCCCCCCC(=O)N1CCN(c2cc3c(cc2F)c(=O)c(C(=O)O)cn3C2CC2)CC1"
Result string: 500

Query string: Can you share its MBC? I mean this compound: "CCCCCCCCCCCC(=O)OCC(=O)N1CCN(c2cc3c(cc2F)c(=O)c(C(=O)O)cn3C2CC2)CC1"
Result string: 250

Query string: Can you share its MBC? I mean this compound: "CCCCCCCCCCCC(=O)OCOC(=O)c1cn2c3c(c(N4CCN(C)CC4)c(F)cc3c1=O)OC[C@@H]2C"
Result string: 3.9

Query string: Can you share its MBC? I mean this compound: "CCCCCCCCCC(=O)N1CCN(c2cc3c(cc2F)c(=O)c(C(=O)O)cn3C2CC2)CC1"
Result string: 500
